Each recorded value in this set is attributed to BigSolDB 2.1.

conditions: in 1,4-dioxane, 323.15 K
observation-type: solubility (mole fraction)

[
  {
    "compound-smiles": "O=C1c2ccccc2-c2ccc(Br)cc21",
    "endpoint-value": 0.0527
  }
]

----------
conditions: in isopropanol, 318.15 K

[
  {
    "compound-smiles": "O=C1c2ccccc2-c2ccc(Br)cc21",
    "solubility (mole fraction)": 0.00224
  }
]

----------
details: in n-propanol, 278.15 K

[
  {
    "compound-smiles": "O=C1c2ccccc2-c2ccc(Br)cc21",
    "solubility (mole fraction)": 0.0006
  }
]

----------
conditions: in n-butanol, 313.15 K

[
  {
    "compound-smiles": "O=C1c2ccccc2-c2ccc(Br)cc21",
    "solubility (mole fraction)": 0.00393
  }
]
